- SYSTEM_UNDER_TEST: human Nav1.7 (Homo sapiens (Human))
- Sequence (Q15858 whole entry): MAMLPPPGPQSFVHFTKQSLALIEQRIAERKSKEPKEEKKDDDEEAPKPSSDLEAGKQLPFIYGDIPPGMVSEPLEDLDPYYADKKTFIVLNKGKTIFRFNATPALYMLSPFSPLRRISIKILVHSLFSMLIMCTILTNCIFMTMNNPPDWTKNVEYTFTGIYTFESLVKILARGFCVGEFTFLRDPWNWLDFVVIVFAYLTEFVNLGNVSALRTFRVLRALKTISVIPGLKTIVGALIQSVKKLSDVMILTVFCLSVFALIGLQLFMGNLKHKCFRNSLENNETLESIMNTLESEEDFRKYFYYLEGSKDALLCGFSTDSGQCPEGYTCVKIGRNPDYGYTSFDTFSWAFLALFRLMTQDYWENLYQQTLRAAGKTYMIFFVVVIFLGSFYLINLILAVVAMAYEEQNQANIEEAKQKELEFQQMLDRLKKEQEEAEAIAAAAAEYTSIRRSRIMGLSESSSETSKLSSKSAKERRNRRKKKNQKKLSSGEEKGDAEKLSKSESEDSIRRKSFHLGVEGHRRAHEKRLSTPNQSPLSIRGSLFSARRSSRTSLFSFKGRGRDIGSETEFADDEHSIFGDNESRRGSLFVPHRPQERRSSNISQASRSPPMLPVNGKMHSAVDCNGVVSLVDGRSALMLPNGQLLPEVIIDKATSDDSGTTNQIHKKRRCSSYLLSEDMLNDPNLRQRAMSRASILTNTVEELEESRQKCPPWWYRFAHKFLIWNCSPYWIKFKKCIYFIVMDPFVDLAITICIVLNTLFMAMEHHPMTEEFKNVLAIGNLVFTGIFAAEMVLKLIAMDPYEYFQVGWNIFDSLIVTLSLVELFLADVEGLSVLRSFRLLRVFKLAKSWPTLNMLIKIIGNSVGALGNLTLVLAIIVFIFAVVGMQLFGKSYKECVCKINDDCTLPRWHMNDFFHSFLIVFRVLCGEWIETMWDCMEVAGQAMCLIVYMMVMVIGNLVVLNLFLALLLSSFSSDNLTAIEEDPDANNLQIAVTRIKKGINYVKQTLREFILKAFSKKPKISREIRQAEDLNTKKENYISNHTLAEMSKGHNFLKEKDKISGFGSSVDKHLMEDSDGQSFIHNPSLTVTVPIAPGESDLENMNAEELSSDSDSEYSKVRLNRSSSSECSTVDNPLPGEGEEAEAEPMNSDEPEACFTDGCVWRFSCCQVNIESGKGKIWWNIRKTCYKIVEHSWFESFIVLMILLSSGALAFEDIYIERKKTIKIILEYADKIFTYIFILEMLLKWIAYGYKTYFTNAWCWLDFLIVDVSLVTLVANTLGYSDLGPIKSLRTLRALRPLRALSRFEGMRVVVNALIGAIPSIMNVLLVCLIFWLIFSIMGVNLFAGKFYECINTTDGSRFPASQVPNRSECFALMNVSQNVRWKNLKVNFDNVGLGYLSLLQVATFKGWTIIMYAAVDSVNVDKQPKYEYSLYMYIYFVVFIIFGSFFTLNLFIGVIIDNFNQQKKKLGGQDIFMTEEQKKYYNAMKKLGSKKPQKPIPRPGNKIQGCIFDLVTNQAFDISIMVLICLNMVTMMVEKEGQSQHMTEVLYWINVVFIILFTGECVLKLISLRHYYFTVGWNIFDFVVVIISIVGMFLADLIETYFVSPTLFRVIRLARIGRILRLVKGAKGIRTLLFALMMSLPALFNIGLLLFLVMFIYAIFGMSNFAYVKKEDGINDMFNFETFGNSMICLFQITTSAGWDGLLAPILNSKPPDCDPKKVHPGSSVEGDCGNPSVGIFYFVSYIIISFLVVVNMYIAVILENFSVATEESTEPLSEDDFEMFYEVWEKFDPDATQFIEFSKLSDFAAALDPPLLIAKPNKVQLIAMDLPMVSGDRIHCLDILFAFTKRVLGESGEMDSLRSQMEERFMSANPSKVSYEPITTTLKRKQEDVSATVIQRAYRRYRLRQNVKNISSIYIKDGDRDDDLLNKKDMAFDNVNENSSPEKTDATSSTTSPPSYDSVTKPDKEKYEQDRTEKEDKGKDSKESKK
- Sequence (Q07699 19-218 partner): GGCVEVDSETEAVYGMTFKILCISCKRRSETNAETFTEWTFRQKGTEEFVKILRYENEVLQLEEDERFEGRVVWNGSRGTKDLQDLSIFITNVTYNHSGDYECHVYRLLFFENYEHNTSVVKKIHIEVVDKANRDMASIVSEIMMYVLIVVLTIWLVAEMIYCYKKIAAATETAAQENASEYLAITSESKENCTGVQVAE
- TEST: Human Nav1.7 inhibitory activity evaluation (automated patch clamp QPatch16X, HEK293A cells stably expressing human Nav1.7 and human Navβ1)
- Format: cell-based
- CONDITION_LABEL: human Nav1.7, automated patch clamp
pIC50: −log10 of the molar value.

[
  {
    "MOLECULE": "O=C(N[C@H]1COc2ccc(COCC(F)(F)F)cc2C1)c1cc2n(n1)CCC(COC1CCC1)O2 (some centres unmarked) [Example 438]",
    "pIC50": "> 6.00"
  },
  {
    "MOLECULE": "O=C(N[C@H]1COc2ccc(C(F)(F)F)cc2C1)c1nn2c(c1-c1ccccn1)COCCC2 [Example 528]",
    "pIC50": "> 5.00"
  },
  {
    "MOLECULE": "N#Cc1ccc2c(c1)C[C@@H](NC(=O)c1cc3n(n1)CCC(c1ccccc1F)O3)CO2 (some centres unmarked) [Example 359]",
    "pIC50": "> 6.00"
  },
  {
    "MOLECULE": "CC(C)C1CCn2nc(C(=O)N[C@H]3COc4ccc(C#N)cc4C3)cc2O1 (some centres unmarked) [Example 393]",
    "pIC50": "> 5.00"
  },
  {
    "MOLECULE": "O=C(N[C@H]1COc2ccc(COCC(F)(F)F)cc2C1)c1cc2n(n1)CC(CCNCC(F)(F)F)O2 (some centres unmarked) [Example 231]",
    "pIC50": "> 6.00"
  },
  {
    "MOLECULE": "COc1ccc(CCC2CCc3nc(C(=O)N4CCC(c5ccccc5)C4)cn3C2)cn1 (centres unmarked) [Example 317]",
    "pIC50": "> 5.00"
  },
  {
    "MOLECULE": "COc1cccc(-c2c(C(=O)N[C@H]3COc4ccc(C(F)(F)F)cc4C3O)nn3c2COCC3)n1 (some centres unmarked) [Example 529]",
    "pIC50": "> 6.00"
  },
  {
    "MOLECULE": "O=C(NC1COc2cccc(F)c2C1)c1cc2n(n1)CCC(c1ccccc1)O2 (centres unmarked) [Example 356]",
    "pIC50": "> 6.00"
  }
]

###

- SYSTEM_UNDER_TEST: UniProt Q14524
- Sequence (Q14524 whole entry): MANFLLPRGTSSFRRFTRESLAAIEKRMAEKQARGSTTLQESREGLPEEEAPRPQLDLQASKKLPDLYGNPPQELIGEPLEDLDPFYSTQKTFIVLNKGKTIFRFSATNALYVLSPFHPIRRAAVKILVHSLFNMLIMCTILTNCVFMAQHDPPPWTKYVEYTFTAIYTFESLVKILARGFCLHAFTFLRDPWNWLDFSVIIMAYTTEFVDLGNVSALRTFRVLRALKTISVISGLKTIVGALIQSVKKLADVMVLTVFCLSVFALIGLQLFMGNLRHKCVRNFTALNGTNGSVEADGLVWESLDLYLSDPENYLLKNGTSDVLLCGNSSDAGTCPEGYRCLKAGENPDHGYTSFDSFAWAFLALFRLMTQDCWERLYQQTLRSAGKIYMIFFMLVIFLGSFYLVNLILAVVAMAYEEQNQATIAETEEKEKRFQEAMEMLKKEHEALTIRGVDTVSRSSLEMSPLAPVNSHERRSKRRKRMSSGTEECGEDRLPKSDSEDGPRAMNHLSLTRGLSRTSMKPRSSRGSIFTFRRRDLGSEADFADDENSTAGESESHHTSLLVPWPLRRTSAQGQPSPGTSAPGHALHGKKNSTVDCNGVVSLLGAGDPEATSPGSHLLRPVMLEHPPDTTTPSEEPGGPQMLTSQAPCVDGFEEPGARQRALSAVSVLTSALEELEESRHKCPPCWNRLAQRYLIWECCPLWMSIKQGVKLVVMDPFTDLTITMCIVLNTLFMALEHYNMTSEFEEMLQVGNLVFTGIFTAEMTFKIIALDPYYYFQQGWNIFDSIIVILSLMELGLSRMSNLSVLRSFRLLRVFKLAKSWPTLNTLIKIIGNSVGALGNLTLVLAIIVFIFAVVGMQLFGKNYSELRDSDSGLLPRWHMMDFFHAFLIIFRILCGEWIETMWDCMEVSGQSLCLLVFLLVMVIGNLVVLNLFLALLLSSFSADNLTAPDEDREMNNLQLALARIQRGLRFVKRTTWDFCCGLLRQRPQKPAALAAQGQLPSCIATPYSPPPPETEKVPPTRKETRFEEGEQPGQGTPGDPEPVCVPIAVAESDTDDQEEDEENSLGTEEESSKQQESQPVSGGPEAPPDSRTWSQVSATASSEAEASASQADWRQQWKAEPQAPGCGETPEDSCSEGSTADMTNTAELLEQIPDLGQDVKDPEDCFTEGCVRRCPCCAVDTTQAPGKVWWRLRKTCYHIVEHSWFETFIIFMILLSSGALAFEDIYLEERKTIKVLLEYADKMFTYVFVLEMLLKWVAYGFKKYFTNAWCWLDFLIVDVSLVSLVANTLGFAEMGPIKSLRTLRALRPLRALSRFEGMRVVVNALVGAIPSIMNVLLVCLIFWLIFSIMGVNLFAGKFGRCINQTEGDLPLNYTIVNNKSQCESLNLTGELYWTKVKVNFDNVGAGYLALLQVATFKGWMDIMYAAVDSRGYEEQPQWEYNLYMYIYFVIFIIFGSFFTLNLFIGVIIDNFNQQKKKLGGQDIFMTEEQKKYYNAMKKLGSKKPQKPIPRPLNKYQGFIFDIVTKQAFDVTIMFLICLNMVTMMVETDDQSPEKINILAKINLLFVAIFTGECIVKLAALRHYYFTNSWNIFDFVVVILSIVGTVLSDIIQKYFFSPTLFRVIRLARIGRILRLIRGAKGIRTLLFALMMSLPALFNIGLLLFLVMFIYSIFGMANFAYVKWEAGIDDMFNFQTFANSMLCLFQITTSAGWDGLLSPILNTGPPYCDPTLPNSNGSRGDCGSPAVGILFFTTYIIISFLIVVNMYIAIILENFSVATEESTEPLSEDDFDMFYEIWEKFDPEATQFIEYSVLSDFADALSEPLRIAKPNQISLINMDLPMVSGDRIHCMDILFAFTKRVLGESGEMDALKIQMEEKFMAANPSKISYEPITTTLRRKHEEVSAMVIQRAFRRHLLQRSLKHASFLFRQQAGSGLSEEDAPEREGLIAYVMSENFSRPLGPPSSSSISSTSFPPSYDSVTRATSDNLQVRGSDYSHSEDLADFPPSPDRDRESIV
- TEST: Human Nav1.5 inhibitory activity evaluation (automated patch clamp QPatch16X, HEK293 cells stably expressing human Nav1.5)
- Assay type: cell-based
- CONDITION_LABEL: human Nav1.5, automated patch clamp
MEASURE: IC50

[
  {
    "COMPOUND": "O=C(N[C@H]1COc2ccc(Cl)cc2C1)c1cc2n(n1)CCC(CNCC(F)(F)F)O2 (stereo partly shown) [Example 151]",
    "SYSTEM_UNDER_TEST": "UniProt Q14524",
    "MEASURE": "IC50",
    "OBSERVED_VALUE": "1 to 3 µM"
  },
  {
    "COMPOUND": "N#Cc1ccc2c(c1)C[C@@H](NC(=O)c1cc3n(n1)CC(CCCOCC(F)(F)F)O3)CO2 (single isomer, unassigned) [246 (isomer A)]",
    "SYSTEM_UNDER_TEST": "UniProt Q14524",
    "MEASURE": "IC50",
    "OBSERVED_VALUE": "1 to 3 µM"
  },
  {
    "COMPOUND": "O=C(N[C@H]1COc2ccc(C(F)(F)F)cc2C1)c1cc2n(n1)CC(CCNCC(F)(F)F)O2 (single isomer, unassigned) [230 (isomer A)]",
    "SYSTEM_UNDER_TEST": "UniProt Q14524",
    "MEASURE": "IC50",
    "OBSERVED_VALUE": "≥ 3 µM"
  },
  {
    "COMPOUND": "N#Cc1ccc2c(c1)C[C@@H](NC(=O)c1cc3n(n1)CC(COCC1CCC1)O3)CO2 (stereo partly shown)",
    "SYSTEM_UNDER_TEST": "UniProt Q14524",
    "MEASURE": "IC50",
    "OBSERVED_VALUE": "≥ 3 µM"
  }
]
